# test method notes: self-splicing fitness, log relative to wild type (ln ratio); higher = more splicing; Tetrahymena group I intron in knt gene, E. coli kanamycin selection, DiMSum; sequences stand for … in CUCUCU…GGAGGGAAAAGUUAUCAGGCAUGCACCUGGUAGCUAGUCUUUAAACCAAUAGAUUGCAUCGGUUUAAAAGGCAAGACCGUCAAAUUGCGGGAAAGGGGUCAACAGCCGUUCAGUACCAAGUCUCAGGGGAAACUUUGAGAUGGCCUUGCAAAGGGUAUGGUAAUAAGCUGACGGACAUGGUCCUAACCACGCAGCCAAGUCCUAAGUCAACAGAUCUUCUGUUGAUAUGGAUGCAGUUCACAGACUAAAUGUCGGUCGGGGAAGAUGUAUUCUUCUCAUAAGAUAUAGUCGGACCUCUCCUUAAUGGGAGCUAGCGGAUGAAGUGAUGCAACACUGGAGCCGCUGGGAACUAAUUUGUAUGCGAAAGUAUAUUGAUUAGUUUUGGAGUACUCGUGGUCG;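 further: selection with 25 µg/mL kanamycin versus none on LB agar overnight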
# condition label: 37 °C
Answer No if self-splicing fitness (ln) is under -2, and Yes if it is -2 or more.

AAAUAGCAAUAUUACGCGUA	Yes
CGGAAGCAAUAUUACGCUUU	No
CCUUAGCAAUAUUACGAAGA	No
UUUUAGCAAUAUUACGGAGA	Yes
CUGAAGCAAUAUUACGCAUU	No
GUGAAGCAAUAUUACGCGGA	Yes
GUCGAGCAAUAUUACGAUCC	Yes
UUUAAGCAAUAUUACGUAAG	Yes
CUGUAGCAAUAUUACGAUGA	Yes
AGGUAGCAAUAUUACGGUCC	Yes
UUGUAGCAAUAUUACGUUAU	No
GGGCAGCAAUAUUACGCGAC	No
UCGAAGCAAUAUUACGACAU	No
GAGUAGCAAUAUUACGAUGG	Yes
GACCAGCAAUAUUACGGGCG	Yes
UACUAGCAAUAUUACGAGUG	Yes
AUCGAGCAAUAUUACGAUGA	Yes
CCGGAGCAAUAUUACGGACG	Yes
CUGGAGCAAUAUUACGUGGC	No
CAUUAGCAAUAUUACGUAGA	Yes
UGUGAGCAAUAUUACGGAGG	No
AGCCAGCAAUAUUACGCAUC	No
GGUAAGCAAUAUUACGCAAC	Yes
ACUUAGCAAUAUUACGACCG	Yes
AACGAGCAAUAUUACGCUGC	No
UCUGAGCAAUAUUACGUCUG	Yes
CAGAAGCAAUAUUACGGACG	Yes
AUCCAGCAAUAUUACGAUAU	Yes
ACAAAGCAAUAUUACGCAAG	Yes
CAAUAGCAAUAUUACGUAGU	No
